B1: SMTNL2 (parent)
chain: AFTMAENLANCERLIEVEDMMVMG

# Variants of: B1
# protocol-details: protein stability index of a GFP-peptide fusion (GPS, HEK-293T) (PSI 1-6); higher = more stable;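 further: lentivirally expressed fusions sorted by FACS into six bins by GFP to DsRed ratio, PSI derived from sequencing read proportions per bin multiplied by bin number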
# assay-conditions: c terminus: a fixed tail appended
readout-label: protein stability index
No unit in the answer, only the number.

These recorded examples may help you get a feel for the data.
{"sequence-record": "AFTMAENLANCPRLIEVEDMMVMG [E12P]", "protein stability index": 2.37}
{"sequence-record": "AFTMAPNLANCERLIEVEDMMVMG [E6P]", "protein stability index": 2.89}
{"sequence-record": "AFTMAEYLANCERLIEVEDMMVMG [N7Y]", "protein stability index": 1.62}
{"sequence-record": "AFTMAENLANCERLINVEDMMVMG [E16N]", "protein stability index": 2.17}
{"sequence-record": "AFTMAENLANCERDIEVEDMMVMG [L14D]", "protein stability index": 4.59}

Ask: Data request, read-out protein stability index, for AFTMAENLANNERLIEVEDMMVMG [C11N]
Result: 3.92

Ask: Data request, read-out protein stability index, for AFTMAENLANCERLIEVEDMMGMG [V22G]
Result: 2.54

Ask: Data request, read-out protein stability index, for AFTMAENLANGERLIEVEDMMVMG [C11G]
Result: 3.23

Ask: Data request, read-out protein stability index, for AFTMAENLANCERLIEVEDMMVMN [G24N]
Result: 2.45

Ask: Data request, read-out protein stability index, for AFTMAENLANCERLIEVLDMMVMG [E18L]
Result: 2.22

Ask: Data request, read-out protein stability index, for AFPMAENLANCERLIEVEDMMVMG [T3P]
Result: 3.15
